Assign pKd to each entry below.
- target.under.test: T1, Murine RANK-Fc (mouse, UniProt O35305 31-214)
- T1 sequence (looked up): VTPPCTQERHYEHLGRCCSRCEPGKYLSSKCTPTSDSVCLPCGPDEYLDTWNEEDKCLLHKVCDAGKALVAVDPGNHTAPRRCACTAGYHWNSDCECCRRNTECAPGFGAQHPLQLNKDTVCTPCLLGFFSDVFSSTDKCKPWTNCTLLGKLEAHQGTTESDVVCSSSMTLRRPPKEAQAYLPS
- measurement.notes: SPR
One number for each entry, as −log10 of the molar value.

The following binders have reported results that may help.
| binder | pKd |
| --- | --- |
| RANKL_Q236H (ligand, mouse, UniProt O35235 160-316, looked up) EAQPFAHLTINAASIPSGSHKVTLSSWYHDRGWAKISNMTLSNGKLRVNQDGFYYLYANICFRHHETSGSVPTDYLHLMVYVVKTSIKIPSSHNLMKGGSTKNWSGNSEFHFYSINVGGFFKLRAGEEISIQVSNPSLLDPDQDATYFGAFKVQDID | 10.73 |
| RANKL_Q236K (ligand, mouse, UniProt O35235 160-316, looked up) EAQPFAHLTINAASIPSGSHKVTLSSWYHDRGWAKISNMTLSNGKLRVNQDGFYYLYANICFRHHETSGSVPTDYLKLMVYVVKTSIKIPSSHNLMKGGSTKNWSGNSEFHFYSINVGGFFKLRAGEEISIQVSNPSLLDPDQDATYFGAFKVQDID | 9.92 |

Query binder follows.
Request: Bench note: what pKd did RANKL_Q236N (ligand, mouse, UniProt O35235 160-316, looked up) EAQPFAHLTINAASIPSGSHKVTLSSWYHDRGWAKISNMTLSNGKLRVNQDGFYYLYANICFRHHETSGSVPTDYLNLMVYVVKTSIKIPSSHNLMKGGSTKNWSGNSEFHFYSINVGGFFKLRAGEEISIQVSNPSLLDPDQDATYFGAFKVQDID show?
Response: 10.66
